The measured values listed here are drawn from the RNAGym collection of RNA variant scans (doi:10.1093/nar/gkz1192).

# Lookup of reported self-cleavage keyed by entry
B1: CPEB3 Ribozyme (parent)
chain: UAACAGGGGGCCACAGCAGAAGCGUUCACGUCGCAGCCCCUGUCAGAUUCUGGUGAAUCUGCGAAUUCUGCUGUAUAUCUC

- Variants of: B1
- test: self-cleavage, relative activity (ratio to wild type); higher = more cleavage; in vitro, sequencing
Just the number.

Example variants with recorded self-cleavage:
constructSequence | self-cleavage
UAACAGGGGGCCACAGCAGAAGCGUACACGUCGCAGCCCCUGUCAGAUUCUGGUGAAUCUGCGAAUUCUGUUGUAUAUCUC [U26A C71U] | 0.24
UAACAGGGGGCCACAUCAGAAGCGUUCACGUCGCAGCCCCUGUCAGAUUCUGGUGAAUCUGCGAAUUCUGCUGUAUACCUC [G16U U78C] | 0.27
UAACAGGGGGCCACAGCAGUAGCGUUCACGUCGCAGCCCCUGUCAGAUUCUGGUGCAUCUGCGAAUUCUGCUGUAUAUCUC [A20U A56C] | 0.54

Memo: UAACAGGGGGCCACAGCAGAAGCGUUCACGUCGCAGCCCCUGUCAGAUACUGGUGAAUCUGCGUAUUCUGCUGUAUAUCUC [U49A A64U] , reported self-cleavage: 0.25

Memo: UAACAGGGGGCCACAGCAGAAGCGUUCACGUCGCAGCCCCUGUCAGUUUCAGGUGAAUCUGCGAAUUCUGCUGUAUAUCUC [A47U U51A] , reported self-cleavage: 0.4
